targetOfAssay: Short transient receptor potential channel 3 (Homo sapiens, UniProt Q13507)
Sequence (Q13507 whole entry): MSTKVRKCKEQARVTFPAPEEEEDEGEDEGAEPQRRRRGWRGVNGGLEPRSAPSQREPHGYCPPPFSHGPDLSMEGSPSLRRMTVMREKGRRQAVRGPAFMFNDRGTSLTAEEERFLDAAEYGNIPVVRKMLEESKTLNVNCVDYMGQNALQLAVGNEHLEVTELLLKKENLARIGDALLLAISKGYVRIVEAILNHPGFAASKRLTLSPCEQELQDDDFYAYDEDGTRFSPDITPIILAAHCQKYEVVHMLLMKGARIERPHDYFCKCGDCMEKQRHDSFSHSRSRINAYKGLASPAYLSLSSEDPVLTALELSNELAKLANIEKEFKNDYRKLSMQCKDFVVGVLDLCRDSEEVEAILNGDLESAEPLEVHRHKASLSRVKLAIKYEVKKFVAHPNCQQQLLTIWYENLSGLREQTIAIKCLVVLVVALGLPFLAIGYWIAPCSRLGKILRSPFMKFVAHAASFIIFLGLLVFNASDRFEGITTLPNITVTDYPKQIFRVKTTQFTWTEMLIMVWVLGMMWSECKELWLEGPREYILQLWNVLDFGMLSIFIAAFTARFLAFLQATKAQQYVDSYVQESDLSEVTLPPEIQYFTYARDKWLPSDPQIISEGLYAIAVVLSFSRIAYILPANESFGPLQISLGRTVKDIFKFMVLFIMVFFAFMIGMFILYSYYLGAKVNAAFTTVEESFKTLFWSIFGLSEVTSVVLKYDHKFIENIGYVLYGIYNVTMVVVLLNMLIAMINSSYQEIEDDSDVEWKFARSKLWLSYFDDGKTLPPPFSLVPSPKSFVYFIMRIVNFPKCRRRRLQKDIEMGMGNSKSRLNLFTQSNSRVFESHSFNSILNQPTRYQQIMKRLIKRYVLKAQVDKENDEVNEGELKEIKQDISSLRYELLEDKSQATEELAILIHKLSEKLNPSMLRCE
assayNotes: Inhibition of TRPC3 (unknown origin)
pIC50: −log10 of the molar value.
valueKind: pIC50

# lookup: Short transient receptor potential channel 3 (Homo sapiens, UniProt Q13507) pIC50, key = "N#Cc1ccc(O[C@H]2CN(S(=O)(=O)c3ccc(Cl)cc3Cl)C[C@@]2(O)CO)cc1F"
< 5.00
